Molecular target: hAR (human androgen receptor) (Homo sapiens, UniProt P10275)
Construct: made in house; host or cells: baculovirus/Sf9 insect cells (extract)
Sequence (P10275 whole entry): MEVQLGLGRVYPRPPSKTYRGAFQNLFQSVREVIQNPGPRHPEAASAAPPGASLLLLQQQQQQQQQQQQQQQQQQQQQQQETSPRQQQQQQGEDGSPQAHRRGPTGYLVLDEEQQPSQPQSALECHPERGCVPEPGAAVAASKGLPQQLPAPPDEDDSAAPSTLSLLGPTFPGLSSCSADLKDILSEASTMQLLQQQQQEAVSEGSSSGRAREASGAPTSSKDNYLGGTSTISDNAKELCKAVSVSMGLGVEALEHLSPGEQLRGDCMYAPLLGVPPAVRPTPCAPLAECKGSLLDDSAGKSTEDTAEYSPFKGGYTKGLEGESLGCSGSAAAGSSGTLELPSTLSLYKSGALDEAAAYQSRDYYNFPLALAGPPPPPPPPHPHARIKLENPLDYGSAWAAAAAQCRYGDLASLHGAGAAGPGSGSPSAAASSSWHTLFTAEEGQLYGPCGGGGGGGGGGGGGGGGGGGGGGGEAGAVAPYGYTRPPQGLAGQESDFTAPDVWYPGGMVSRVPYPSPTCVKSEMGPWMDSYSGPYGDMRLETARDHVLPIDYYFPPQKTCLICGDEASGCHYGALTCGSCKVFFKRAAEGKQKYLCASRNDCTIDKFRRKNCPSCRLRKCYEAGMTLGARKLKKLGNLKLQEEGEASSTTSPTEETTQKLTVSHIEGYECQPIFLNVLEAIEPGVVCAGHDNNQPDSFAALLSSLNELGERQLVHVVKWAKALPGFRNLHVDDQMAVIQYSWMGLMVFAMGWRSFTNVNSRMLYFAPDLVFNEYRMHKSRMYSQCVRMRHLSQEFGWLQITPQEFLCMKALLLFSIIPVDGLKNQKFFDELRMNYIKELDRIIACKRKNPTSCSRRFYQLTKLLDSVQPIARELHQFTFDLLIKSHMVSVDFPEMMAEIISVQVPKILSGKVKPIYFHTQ
Assay: Competitive binding analysis on hAR extracts with 3H-DHT tracer
Details: baculovirus/Sf9 hAR extract, 1 nM 3H-DHT, one hour at 4° C; mean of multiple tests; read-out: AR Binding IC50
Binary call on IC50 with cut-off 300 nM: strictly below means true (1), and equality or higher means false (0).

Answered cases to consult:
1) CC(C)CCCC(COc1ccc(C#N)c(C(F)(F)F)c1)Oc1ccc(C#N)c(C(F)(F)F)c1 (centres unmarked) | false (0)
2) C[C@H](CCOc1ccc(C#N)c(C(F)(F)F)c1)Oc1ccc(C#N)c(C(F)(F)F)c1 | true (1)
3) CCCCCCC(COc1ccc(C#N)c(C(F)(F)F)c1)Oc1ccc(C#N)c(C(F)(F)F)c1 (centres unmarked) | true (1)

Field: below-cutoff. Rule: recorded IC50 strictly less than 300 nM. Subject: CC1(C)CC1(COc1ccc(C#N)c(C(F)(F)F)c1)Oc1ccc(C#N)c(C(F)(F)F)c1 (centres unmarked)
true (1)
